- MEASUREMENT_TARGET: T1, human CD47 expressed on cells (CD47 expressing CHO cells, Jurkat, HL60, DLD1, Raji) (human, UniProt Q08722 19-292)
- T1 construct: also called CHO-CD47; IAP
- ASSAY: flow cytometry on human platelets, donor 1, MFI
REPORTED_ENDPOINT: EC50 (read off the curve)

>>> result("H-ABU 11 (antibody, V domains shown) VH: QVQLVQSGAEVKKPGASVKVSCKASGYTFTDFYINWVRQAPGQRLEWMGWIYLGSGNTKYNEKFKGRVTITRDTSASTAYMELSSLRSEDTAVYYCARREERGFAYWGQGTLVTVSS VL: DIVMTQSPDSLAVSLGERATINCKSSQSLLSSSQKNYLAWYQQKPGQPPKLLIYWASTRDSGVPDRFSGSGSGTDFTLTISSLQAEDVAVYYCQQFYSYPLTFGQGTKVEIK")
"~1 nM"
>>> result("H-ABU 41 (antibody, V domains shown, Humanized antibody) VL: DVQITQSPSSLSASVGDRVTITCRASKNIGKYLAWFQQKPGKTNKLLIYSGSTLQSGIPSRFSGSGSGTDFTLTISSLQPEDFATYYCQQHNEYPYTFGGGTKVEIK VH: QVQLQQSGAEVKKPGASVKVSCKTSGYSFTNYWMQWVRQAPGQGLEWIGMIDPSDSESRLNQKFKDKATLTVDKSTSTAYMELSSLRSEDTAVYYCARRGSPMITSFAYWGQGTLVTVSS")
"~0.6 nM"
>>> result("H-ABU44 (antibody, V domains shown) VH: QVQLVQSGAEVKKPGASVKVSCKASGYSFTNYHIHWVRQAPGQRLEWIGWIYPGSGNTKYNEKFKGRATLTADTSASTAYMELSSLRSEDTAVYYCARYDYDLYLHSWGQGTLVTVSS VL: DIQITQSPSSVSASVGDRVTITCHASQNINVWLSWYQQKPGKAPKLLIYKASNLHTGVPSRFSGSGSGTGFTLTISSLQPEDFATYYCQQGQSYPLTFGQGTKLEIK")
"~0.1 nM"
>>> result("H-ABU 10 (antibody, V domains shown) VL: DIVMTQSPDSLAVSLGERATINCKSSQSLVSSSQKNYLAWYQQKPGQPPKLLIYWASVRDSGVPDRFSGSGSGTDFTLTISSLQAEDVAVYYCQQYYSYPLTFGQGTKVEIK VH: QVQLVQSGAEVKKPGASVKVSCKASGYTFTDNYINWVRQAPGQRLEWMGWIYLGSGNTKYNEKFKGRVTITRDTSASTAYMELSSLRSEDTAVYYCARREERGFAPWGQGTLVTVSS")
"~0.6 nM"
>>> result("H-ABU 43 (antibody, V domains shown, Humanized antibody) VH: QVQLVQSGAEVKKPGASVKVSCKTSGYSFTNYWMQWVRQAPGQGLEWMGMIDPSDSESRLNQKFKDRVTMTRDTSTSTAYMELSSLRSEDTAVYYCARRGSPMITSFAYWGQGTLVTVSS VL: DVQITQSPSSLSASVGDRVTITCRASKNIGKYLAWFQQKPGKTNKLLIYSGSTLQSGIPSRFSGSGSGTDFTLTISSLQPEDFATYYCQQHNEYPYTFGGGTKVEIK")
"~0.6 nM"
